Each item that follows carries a reported cytotoxicity at 10 µM.
test: Toxicity liver stage against HepG2, at 10uM; format: cell-based; parameters: test concentration 10 uM, cell line HepG2-A16-CD81EGFP; conditions: human, HepG2-A16-CD81EGFP cells; read-out: INHIBITION
reported property: cytotoxicity at 10 µM (%)

[
  {
    "molecule": "CN(C)C(CNS(=O)(=O)c1cc(F)ccc1F)c1cccn1C (configuration not stated)",
    "unit abbrev": "%",
    "value observed": 1.33
  },
  {
    "molecule": "COc1cccc(CC2CCCN2Cc2nccn2C)c1 (configuration not stated)",
    "unit abbrev": "%",
    "value observed": -6.16
  },
  {
    "molecule": "O=S1(=O)c2cccnc2OC(COc2ccccc2)CN1CC1CC1 (configuration not stated)",
    "unit abbrev": "%",
    "value observed": -3.24
  },
  {
    "molecule": "C[C@@H]1CN(c2ccc3c(Cl)ccnc3c2F)CC(C(N)=O)O1 (some centres not stated)",
    "unit abbrev": "%",
    "value observed": 4.11
  },
  {
    "molecule": "Cc1nn(CC(=O)N2CCN(Cc3cnn(C)c3C)CC2)cc1Br",
    "unit abbrev": "%",
    "value observed": -7.55
  },
  {
    "molecule": "Cc1cc(C)n(C(=O)Cn2nc(C)c(I)c2C)n1",
    "unit abbrev": "%",
    "value observed": -6.52
  },
  {
    "molecule": "Cc1c(C(N)=O)sc2nc(C(F)(F)F)ccc12",
    "unit abbrev": "%",
    "value observed": -3.33
  },
  {
    "molecule": "Cc1cc(C)nc(N2CCC(c3nnc(CN(C)C)n3C3CC3)CC2)n1",
    "unit abbrev": "%",
    "value observed": -0.578
  },
  {
    "molecule": "Cc1ccc(CN(CCN(C)C)Cc2ccnn2C2CCCCO2)o1 (configuration not stated)",
    "unit abbrev": "%",
    "value observed": 0.267
  },
  {
    "molecule": "CC(=O)N1CCN(C(=O)NCCCN(C(C)C)S(C)(=O)=O)CC1",
    "unit abbrev": "%",
    "value observed": -14
  },
  {
    "molecule": "COc1cccc(C(=O)N2CCCC2c2ncc3c(n2)CCN(C)C3)c1 (configuration not stated)",
    "unit abbrev": "%",
    "value observed": -9.41
  },
  {
    "molecule": "O=C(NCCCC(=O)N1CCN(CC2CC2)c2ccccc21)C1CC1",
    "unit abbrev": "%",
    "value observed": -9.59
  },
  {
    "molecule": "CC(C)CCN1C(=O)CC(N(C)Cc2nc3ccccc3c(=O)[nH]2)C1=O (configuration not stated)",
    "unit abbrev": "%",
    "value observed": -3.85
  },
  {
    "molecule": "CCC1(CC)Cc2ccccc2-c2nc(NCCO)[nH]c(=O)c21",
    "unit abbrev": "%",
    "value observed": -7.17
  },
  {
    "molecule": "COCCCC1(CO)CCCN(Cc2nccs2)C1 (configuration not stated)",
    "unit abbrev": "%",
    "value observed": 2.43
  },
  {
    "molecule": "Cc1ccccc1CN1CCCN(C2CCOC2=O)CC1 (configuration not stated)",
    "unit abbrev": "%",
    "value observed": -3.09
  },
  {
    "molecule": "CN(C)C(=O)c1nc(-c2ccc(S(C)(=O)=O)cc2)c2ccccn12",
    "unit abbrev": "%",
    "value observed": 8.77
  },
  {
    "molecule": "C[C@@H](O)CNC(=O)c1nc(CC(=O)Nc2cccc(C(F)(F)F)c2)no1",
    "unit abbrev": "%",
    "value observed": 8.35
  },
  {
    "molecule": "O=C(c1ccc[nH]1)N1CCC2(CC1)COCCN(c1nccs1)C2",
    "unit abbrev": "%",
    "value observed": 12.8
  },
  {
    "molecule": "CC(C)(C)OC(=O)N1CCC(NC2CCS(=O)(=O)C2)CC1 (configuration not stated)",
    "unit abbrev": "%",
    "value observed": -6.72
  },
  {
    "molecule": "CCN(CC)C(=O)C1CCCN(c2ncnc3oc(C)nc23)C1 (configuration not stated)",
    "unit abbrev": "%",
    "value observed": 1.61
  },
  {
    "molecule": "Cc1cc(CN2CC[C@@H]3[C@@H](CCC(=O)N3CCc3c[nH]cn3)C2)oc1C",
    "unit abbrev": "%",
    "value observed": -0.466
  },
  {
    "molecule": "O=C(c1cccc(S(=O)(=O)NCCc2nccs2)c1)N1CCOCC1",
    "unit abbrev": "%",
    "value observed": -4.19
  },
  {
    "molecule": "O=C1CCC(c2nc(C3CCN(C(=O)Cc4cccs4)CC3)no2)N1 (configuration not stated)",
    "unit abbrev": "%",
    "value observed": -2.83
  },
  {
    "molecule": "CN(C)c1cccc(C(=O)Nc2cn(C)c(=O)n(C)c2=O)c1",
    "unit abbrev": "%",
    "value observed": 3.34
  },
  {
    "molecule": "CC(C)c1nc2c(n1C)CCN(CC(=O)Nc1nccs1)C2",
    "unit abbrev": "%",
    "value observed": 1.88
  },
  {
    "molecule": "O=C(NCc1cn2c(n1)CN(Cc1ccccn1)CC2)C1CCC1",
    "unit abbrev": "%",
    "value observed": 7.49
  },
  {
    "molecule": "CC1CN(C2CCN(Cc3nccn3CC(F)(F)F)CC2)CCO1 (configuration not stated)",
    "unit abbrev": "%",
    "value observed": -1.32
  },
  {
    "molecule": "O=C(C1CCC2(CCN(c3nncs3)CC2)CO1)N1CCCC1 (configuration not stated)",
    "unit abbrev": "%",
    "value observed": 9.46
  },
  {
    "molecule": "Cc1cnc(C(=O)N2C[C@H]3CN(Cc4cccs4)C[C@H]3C2)cn1",
    "unit abbrev": "%",
    "value observed": -148
  },
  {
    "molecule": "CCn1ncc2c(C(F)F)cc(-c3ccn(C)n3)nc21",
    "unit abbrev": "%",
    "value observed": -1.21
  },
  {
    "molecule": "Cn1nc2c(cc1=O)CN(CC(=O)Nc1nccs1)CC2",
    "unit abbrev": "%",
    "value observed": 7.07
  },
  {
    "molecule": "CCCn1nc2c(cc1=O)CN(CC(=O)Nc1nnc(C)s1)CC2",
    "unit abbrev": "%",
    "value observed": -11.3
  },
  {
    "molecule": "CCc1nc2c(N3CCCC(c4nccn4CCOC)C3)ncnc2o1 (configuration not stated)",
    "unit abbrev": "%",
    "value observed": -11.2
  },
  {
    "molecule": "Cc1nc(C)n(CC2CCCN2Cc2nc(-c3ccsc3)no2)n1 (configuration not stated)",
    "unit abbrev": "%",
    "value observed": -9.8
  },
  {
    "molecule": "Cc1ccc(-c2ncc(C(=O)NCCS(N)(=O)=O)s2)c(C)c1",
    "unit abbrev": "%",
    "value observed": -10.7
  },
  {
    "molecule": "COc1cccc2c1ccn2CCNC(=O)C(C)C",
    "unit abbrev": "%",
    "value observed": 5.66
  },
  {
    "molecule": "COc1ncccc1C(=O)N1CCn2c(COCC3CC3)cnc2C1C (configuration not stated)",
    "unit abbrev": "%",
    "value observed": -1.03
  },
  {
    "molecule": "COCCN1C[C@@H](C)[C@@]2(COCCN(C(=O)c3ccncc3)C2)C1",
    "unit abbrev": "%",
    "value observed": 5.71
  },
  {
    "molecule": "CCn1ncc2c1C(COC)CN(S(=O)(=O)C1CC1)C2 (configuration not stated)",
    "unit abbrev": "%",
    "value observed": 11.1
  },
  {
    "molecule": "COc1c(C)cnc(CN(C)C(=O)c2ccc(C3CCCO3)s2)c1C (configuration not stated)",
    "unit abbrev": "%",
    "value observed": 9.5
  },
  {
    "molecule": "COCC1CN(Cc2ccoc2)Cc2nn(CC3CC3)cc21 (configuration not stated)",
    "unit abbrev": "%",
    "value observed": -2.24
  },
  {
    "molecule": "CC(Cn1ccnc1)NCc1nncn1C1CCCCC1 (configuration not stated)",
    "unit abbrev": "%",
    "value observed": -4.54
  },
  {
    "molecule": "Cc1cc(C)c(CNC(=O)N(C)Cc2ccc(F)cc2)c(=O)[nH]1",
    "unit abbrev": "%",
    "value observed": -9.12
  },
  {
    "molecule": "Cc1nc(C2(NCC(=O)NC(=O)NCc3cccs3)CCCCC2)no1",
    "unit abbrev": "%",
    "value observed": -9.52
  },
  {
    "molecule": "COCCN1C[C@@H]2CN(C(=O)CC3CC3)C[C@@H]2C1=O",
    "unit abbrev": "%",
    "value observed": 7.8
  },
  {
    "molecule": "FC(F)(F)c1ccccc1CCC1CCCN(Cc2cscn2)C1 (configuration not stated)",
    "unit abbrev": "%",
    "value observed": 2.28
  }
]
